# Tested on: PfHDP1 homeodomain (GST-tagged)
# Assay Name: gcPBM binding intensity (ln(normalized median fluorescence intensity)); higher = stronger DNA binding
In all, about 25,000 sequences were measured (“ln(normalized median fluorescence intensity)”: median about 6.7, highest 2% from about 10 on). Shown is part of a subset that was picked to be rich in the highest values.
Each entry below carries its recorded gcPBM binding intensity (ln).

{"Primary Sequence": "ATGTAAAACATAAAATGTACATATTATACAAACTAT [XGTACX_site5797]", "System Name": "PfHDP1 homeodomain (GST-tagged)", "gcPBM binding intensity (ln)": 6.87}
{"Primary Sequence": "AAAAAAAAGTTAAGCACACACATGAATAAATAATAC [CACACA_site840]", "System Name": "PfHDP1 homeodomain (GST-tagged)", "gcPBM binding intensity (ln)": 6.94}
{"Primary Sequence": "TTTTTTATTGTGATACGTATATTATTTTATGATTAA [GTGCAC_negctrl_site202]", "System Name": "PfHDP1 homeodomain (GST-tagged)", "gcPBM binding intensity (ln)": 6.82}

* * *

# System: PfHDP1 homeodomain (GST-tagged)
# Assay Name: gcPBM binding intensity (ln(normalized median fluorescence intensity)); higher = stronger DNA binding
Whole data set: some 25,000 sequences, median “ln(normalized median fluorescence intensity)” near 6.7, cut for the highest 2% near 10. The entries come from a sample that favours the highest values as a whole.
Decision: gcPBM binding intensity (ln) compared against 7; not below it gives Condition met, below it gives Condition not met.

{"Primary Sequence": "CCTTTTTTTTTTTTATGTACTAAAATAAAATTAGAA [XGTACX_site5956]", "Class Assignment": "Condition not met"}
{"Primary Sequence": "TACATACATACATACACACATACATATGTATATATA [CACACA_site2480]", "Class Assignment": "Condition met"}
{"Primary Sequence": "TATATGAAATATTATGCACACAATATATAATATGAT [CACACA_site936]", "Class Assignment": "Condition met"}
{"Primary Sequence": "CTTAAAAACAAAAATGCACACATAATAAGCATATGT [CACACA_site9149]", "Class Assignment": "Condition met"}
{"Primary Sequence": "AATTAATAAAAAAGGTGTACAGTAAATGCAATAATC [XGTACX_site7956]", "Class Assignment": "Condition met"}
{"Primary Sequence": "AGATAAAATATATATGCACACACATATATATTTCAT [CACACA_site9183]", "Class Assignment": "Condition met"}
{"Primary Sequence": "ACTAAAAAATATATATGTACATAATAATATATTATT [XGTACX_site1260]", "Class Assignment": "Condition not met"}
{"Primary Sequence": "GTCTCCTTTATTTTTGGTACAGATAAGATAAAAGGA [XGTACX_site1591]", "Class Assignment": "Condition not met"}
{"Primary Sequence": "AATAAATAAAAAATTACACACATATTTATAAATATA [CACACA_site7584]", "Class Assignment": "Condition not met"}
{"Primary Sequence": "TATCGAGCCATTTTTACATGCAATTATACATAATTT [TGCATGCA_site987]", "Class Assignment": "Condition not met"}
{"Primary Sequence": "AATATTTTAAATATTGCATGCAATGAAAAATGTAAA [TGCATGCA_site139]", "Class Assignment": "Condition met"}
{"Primary Sequence": "TATTAATTATAAGATGCATGTGCAAAAATATGTTCC [TGCATGCA_site51]", "Class Assignment": "Condition met"}
{"Primary Sequence": "TTTTTCTTTCTCTATTGTACACATGGAAACACATAA [XGTACX_site4601]", "Class Assignment": "Condition met"}
{"Primary Sequence": "AACCATAAATAATTATGTACTAAAAAAAATATATAT [XGTACX_site3415]", "Class Assignment": "Condition not met"}
{"Primary Sequence": "ATGAAACAGTAACATTGTACTTTTACAAAAAAATAA [XGTACX_site806]", "Class Assignment": "Condition not met"}

* * *

Each entry below carries its recorded gcPBM binding intensity (ln).
# Test system: PfHDP1 homeodomain (GST-tagged)
# Assay Name: gcPBM binding intensity (ln(normalized median fluorescence intensity)); higher = stronger DNA binding
Over roughly 25,000 sequences, “ln(normalized median fluorescence intensity)” has its median near 6.7; the highest 2% begin near 10. This is one part of a sample in which the highest values are shown more often than they occur.

{"Primary Sequence": "ATAATTTCATAATACGTGCACATAATATATAAAAAA", "System Name": "PfHDP1 homeodomain (GST-tagged)", "gcPBM binding intensity (ln)": 10.9}
{"Primary Sequence": "GGAATATATATACATACACACATATATATATATATA [CACACA_site1666]", "System Name": "PfHDP1 homeodomain (GST-tagged)", "gcPBM binding intensity (ln)": 9.32}
{"Primary Sequence": "TCATAAACATTATGCACACAAAAATAAAAAAAAATA [CACACA_site1115]", "System Name": "PfHDP1 homeodomain (GST-tagged)", "gcPBM binding intensity (ln)": 10.2}
{"Primary Sequence": "TAAGGAAAAAATTATAGTACATAATAAATGTATATA [XGTACX_site8328]", "System Name": "PfHDP1 homeodomain (GST-tagged)", "gcPBM binding intensity (ln)": 6.15}
{"Primary Sequence": "CAAAATATTTTTATAACACACATATATATAATGTGC [CACACA_site4767]", "System Name": "PfHDP1 homeodomain (GST-tagged)", "gcPBM binding intensity (ln)": 6.52}
{"Primary Sequence": "GAAATAATTTCATATACACACATATACATACATACA [CACACA_site1358]", "System Name": "PfHDP1 homeodomain (GST-tagged)", "gcPBM binding intensity (ln)": 7.13}
{"Primary Sequence": "TATTCTAATTTTTAAACACACAAATATAAATAAGTA [CACACA_site3149]", "System Name": "PfHDP1 homeodomain (GST-tagged)", "gcPBM binding intensity (ln)": 6.35}
{"Primary Sequence": "TATATAACATATGGGACACACATGCAACTGTTATAT [CACACA_site3792]", "System Name": "PfHDP1 homeodomain (GST-tagged)", "gcPBM binding intensity (ln)": 6.89}
{"Primary Sequence": "TATTTTCATTTGCGCGCACACAATAATAATTTTTGG [CACACA_site3525]", "System Name": "PfHDP1 homeodomain (GST-tagged)", "gcPBM binding intensity (ln)": 8.28}
{"Primary Sequence": "AAAAACTTAATATTCACACATATATATATATATATA [CACACA_site5240]", "System Name": "PfHDP1 homeodomain (GST-tagged)", "gcPBM binding intensity (ln)": 9.48}
{"Primary Sequence": "TGATTCTAACTTATGGTGCAACATTATGGACACCGT", "System Name": "PfHDP1 homeodomain (GST-tagged)", "gcPBM binding intensity (ln)": 10.5}
{"Primary Sequence": "TGTAATATATGTATTGCACACCTATAACCATTATTT [CACACA_site8422]", "System Name": "PfHDP1 homeodomain (GST-tagged)", "gcPBM binding intensity (ln)": 9.86}
{"Primary Sequence": "ATAGTATATCAAAATTTGTAAATCATTCTCAATAAA [CACACA_negctrl_site430]", "System Name": "PfHDP1 homeodomain (GST-tagged)", "gcPBM binding intensity (ln)": 5.94}
{"Primary Sequence": "TATAAAAATAAGCACACACACAAATATATATTTATT [CACACA_site922]", "System Name": "PfHDP1 homeodomain (GST-tagged)", "gcPBM binding intensity (ln)": 6.77}
{"Primary Sequence": "CATTAACAAATAAATGCACACATATATATAAATAAT [CACACA_site7892]", "System Name": "PfHDP1 homeodomain (GST-tagged)", "gcPBM binding intensity (ln)": 9.2}
{"Primary Sequence": "ATAAAATATATATGCACACACATATATATTTCATAC [CACACA_site3547]", "System Name": "PfHDP1 homeodomain (GST-tagged)", "gcPBM binding intensity (ln)": 10.2}

* * *

# System: PfHDP1 homeodomain (GST-tagged)
# Assay Name: gcPBM binding intensity (ln(normalized median fluorescence intensity)); higher = stronger DNA binding
The full ranking holds about 25,000 sequences; the median of “ln(normalized median fluorescence intensity)” is about 6.7, and the highest 2% start at about 10. The full list was thinned out, with the highest values kept by preference.
Measured Property: gcPBM binding intensity (ln)

{"Primary Sequence": "TTTTTTATTTTGTGCACACACATAAAAATATATATA [CACACA_site761]", "Val": 11.4}
{"Primary Sequence": "TAATGATAAATACATACACACAAAAAATGATATATA [CACACA_site7258]", "Val": 6.48}
{"Primary Sequence": "AATATAAATATTAAAACACACATAAAAAGATTATTA [CACACA_site1764]", "Val": 6.29}
{"Primary Sequence": "AATATAAGCAAATACACACACACATATAAATATGTA [CACACA_site7741]", "Val": 7.03}
{"Primary Sequence": "CATTTTATTTTCTTTGTGCACAAAAATATTTTTTCT", "Val": 10.8}
{"Primary Sequence": "ATAATATCTTTATGTGTGCACATATATATATATATA", "Val": 10.5}
{"Primary Sequence": "CACTTTTTTTAAATGTGTACGTATATGAAAATATCA [XGTACX_site4854]", "Val": 6.38}
{"Primary Sequence": "ATGTATGTGTATATATGTACATAATATATATCTTTT [XGTACX_site8666]", "Val": 6.6}
{"Primary Sequence": "CAACATTAATATAAAGCACACATATATATAATATAT [CACACA_site8064]", "Val": 6.39}
{"Primary Sequence": "ATATACATATCATGTAGTACAATTTTTTTACTTTTT [XGTACX_site7988]", "Val": 6.14}
{"Primary Sequence": "ATTATCCATGCATTTACACACACACCCAAAAAAATT [CACACA_site4101]", "Val": 7.67}
{"Primary Sequence": "TGTGCTCAAAATTATGCACACACCTAAAATTAATTT [CACACA_site8950]", "Val": 10.7}
{"Primary Sequence": "CAAAAAAACAAACACACACACACACCCATATATATA [CACACA_site3653]", "Val": 6.85}
{"Primary Sequence": "TATATAATATATAAATGTACTTTTGTCTTATATGAA [XGTACX_site7211]", "Val": 6.32}
{"Primary Sequence": "CAAACAATTAAACAAACACACATATACATGTATATA [CACACA_site2060]", "Val": 6.54}
{"Primary Sequence": "TTGTTTTTCTTTGAATGTACTTAATGATTTCCAATT [XGTACX_site2499]", "Val": 6.44}
{"Primary Sequence": "GAAATTTGTTATTGCACACAAATTTTTCTTTTTTTA [CACACA_site2339]", "Val": 9.6}
{"Primary Sequence": "TTTTATTTCTTTGCACCATTTTAAATACAAACAAAT [CACACA_negctrl_site1553]", "Val": 11}
{"Primary Sequence": "TAAGAATAATGACATAGTACAATTTAATAGATCTAA [XGTACX_site3670]", "Val": 6.01}
{"Primary Sequence": "AAAATCATTCCAAAGACATGCATTTTGCAAATAAAA [TGCATGCA_site461]", "Val": 9.22}

All figures here come from the supplement of paper PMC11417369.
